# Test system: HCT116 cells
# test_name: Antiproliferation assay, Cell Titer Glo, 72 hours
# Format: cell-based
# condition_notes: Homo sapiens, HCT-116, 72 h
pIC50: −log10 of the molar value.
measurement_label: pIC50

Answered examples (2):
[[record]]
compound = "C=CC(=O)Nc1ccc(N2CCC(NC(=O)c3n[nH]cc3NC(=O)c3c(Cl)cccc3Cl)CC2)cc1 [FMF-05-073-1]"
val = 7.52

[[record]]
compound = "C=CC(=O)Nc1cccc(C(=O)N2CCC(NC(=O)c3n[nH]cc3NC(=O)c3c(Cl)cccc3Cl)CC2)c1 [FMF-03-196-1]"
val = 7.49


[A] C=CC(=O)Nc1cccc(C(=O)Nc2cccc(NC(=O)c3n[nH]cc3NC(=O)c3c(Cl)cccc3Cl)c2)c1 [FMF-04-011-1]
[B] C=CC(=O)Nc1cccc(S(=O)(=O)N2CCC(NC(=O)c3n[nH]cc3NC(=O)c3c(F)cc(F)cc3F)CC2)c1 [FMF-04-095-1]
Of A versus B , which is the one with smaller reported pIC50? Reply briefly: the label of your chosen item.
A
(A: 7.51, B: 8.15)

* * *

# system_under_test: Cdk14/CycY (Homo sapiens (Human), UniProt O94921)
# Sequence (O94921 whole entry): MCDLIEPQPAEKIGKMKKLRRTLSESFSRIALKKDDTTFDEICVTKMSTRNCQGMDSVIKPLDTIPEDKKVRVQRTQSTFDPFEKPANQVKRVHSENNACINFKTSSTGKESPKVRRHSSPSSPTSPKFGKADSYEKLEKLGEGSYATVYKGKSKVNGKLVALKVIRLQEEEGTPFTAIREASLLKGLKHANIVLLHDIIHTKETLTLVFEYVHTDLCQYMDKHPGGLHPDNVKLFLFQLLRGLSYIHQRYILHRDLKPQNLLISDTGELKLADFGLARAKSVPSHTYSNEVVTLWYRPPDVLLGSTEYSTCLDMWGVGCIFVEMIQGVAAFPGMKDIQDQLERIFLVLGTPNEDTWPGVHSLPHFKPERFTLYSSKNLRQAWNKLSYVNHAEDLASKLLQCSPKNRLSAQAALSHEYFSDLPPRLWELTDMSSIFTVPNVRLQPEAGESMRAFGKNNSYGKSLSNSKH
# Sequence (Q8ND76 whole entry partner): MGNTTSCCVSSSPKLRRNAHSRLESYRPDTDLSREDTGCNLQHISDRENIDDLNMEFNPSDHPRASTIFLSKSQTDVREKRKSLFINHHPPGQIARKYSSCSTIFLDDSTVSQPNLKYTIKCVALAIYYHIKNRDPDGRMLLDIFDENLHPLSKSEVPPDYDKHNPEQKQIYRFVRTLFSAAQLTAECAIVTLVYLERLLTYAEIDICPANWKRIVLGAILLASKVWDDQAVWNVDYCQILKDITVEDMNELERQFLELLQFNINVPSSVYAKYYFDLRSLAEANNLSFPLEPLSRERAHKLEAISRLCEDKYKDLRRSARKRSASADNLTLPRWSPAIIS
# test_name: Lanthascreen Eu kinase binding assay for Cdk14/CycY with 30 minute pre-incubation
# condition_notes: 30 minute pre-incubation of kinase with compound; read-out: IC50 CDK14 binding by Lanthascreen
pIC50: −log10 of the molar value.
measurement_label: pIC50

[[record]]
mol = "C=CC(=O)Nc1cccc(S(=O)(=O)N2CCC(NC(=O)c3n[nH]cc3NC(=O)c3c(F)cc(F)cc3F)CC2)c1"
measurement_label = "pIC50"
val = 6.91

[[record]]
mol = "C=CC(=O)N1CCC[C@H](NC(=O)c2n[nH]cc2NC(=O)c2c(Cl)cccc2Cl)C1"
measurement_label = "pIC50"
val = 6.32

[[record]]
mol = "CN(C)C/C=C/C(=O)N1CCC[C@H](NC(=O)c2n[nH]cc2NC(=O)c2c(Cl)cccc2Cl)C1"
measurement_label = "pIC50"
val = 6.01

[[record]]
mol = "CN(C)C/C=C/C(=O)Nc1ccc(CN2CCC(NC(=O)c3n[nH]cc3NC(=O)c3c(Cl)cccc3Cl)CC2)cc1"
measurement_label = "pIC50"
val = 7.85


[P] C=CC(=O)Nc1ccc(C(=O)Nc2ccc(NC(=O)c3n[nH]cc3NC(=O)c3c(Cl)cccc3Cl)cc2)cc1
[Q] CN(C)C/C=C/C(=O)Nc1cccc(S(=O)(=O)N2CCC(NC(=O)c3n[nH]cc3NC(=O)c3ccccc3)CC2)c1
// which entry has the larger pIC50 value, P or Q ? Reply briefly: the label of your chosen item.
Q

* * *

# system_under_test: Cdk14/CycY (Homo sapiens (Human))
# test_name: Lanthascreen Eu kinase binding assay for Cdk14/CycY with 30 minute pre-incubation
# condition_notes: 30 minute pre-incubation of kinase with compound; read-out: IC50 CDK14 binding by Lanthascreen
# Experimental: Lanthascreen Eu kinase binding assays were conducted for Cdk14/CycY largely as performed in the commercial assay service by Life Technologies, but included a 30 minute pre-incubation step of the kinase with candidate compounds to facilitate covalent bond formation.
measurement_label: IC50 (nM)

Answered examples (3):
[[record]]
mol = "CN(C)C/C=C/C(=O)Nc1ccc(C(=O)N2CCC(NC(=O)c3n[nH]cc3NC(=O)c3c(Cl)cccc3Cl)CC2)cc1"
val = 82

[[record]]
mol = "CN(C)C/C=C/C(=O)Nc1ccc(N2CC[C@H](NC(=O)c3n[nH]cc3NC(=O)c3c(Cl)cccc3Cl)C2)cc1"
val = 116

[[record]]
mol = "CN(C)C/C=C/C(=O)Nc1cccc(NC(=O)c2n[nH]cc2NC(=O)c2c(Cl)cccc2Cl)c1"
val = 88


[P] C=CC(=O)Nc1ccc(N2CCC(NC(=O)c3n[nH]cc3NC(=O)c3c(Cl)cccc3Cl)CC2)cc1
[Q] CN(C)C/C=C/C(=O)Nc1cccc(C(=O)N2CCC(NC(=O)c3n[nH]cc3NC(=O)c3c(Cl)cccc3Cl)CC2)c1
// which entry has the larger IC50 value, P or Q ? Reply briefly: the label of your chosen item.
P

Value source: patent US12187701B2
